System: CCRIS mutagenicity, Ames/micronucleus/aberration tests
Assay: CCRIS mutagenicity studies
Settings: Test System: AMES SALMONELLA TYPHIMURIUM; Strain/Indicator: TA98; Metabolic Activation: NONE; Method: STANDARD PLATE
The source made the active and inactive calls. The rule behind the calls is not given here.
Classes used: active, inactive

>  <mol smiles>
Cc1cc(C)c(C)c(C)c1

>  <qualitative label>
inactive

$$$$
>  <mol smiles>
CCCCO

>  <qualitative label>
inactive

$$$$
>  <mol smiles>
Clc1cccc2ccccc12

>  <qualitative label>
inactive

$$$$
>  <mol smiles>
COC1=CC(=O)C(=O)C(C(C)(C)C)=C1

>  <qualitative label>
inactive

$$$$
>  <mol smiles>
Nc1cc2nc3ccccc3nc2cc1N

>  <qualitative label>
active

$$$$
>  <mol smiles>
C(=N\NC1=NCCN1)/c1c2ccccc2c(/C=N/NC2=NCCN2)c2ccccc12

>  <qualitative label>
active

$$$$
>  <mol smiles>
N#CC(C#N)=C(C#N)C#N

>  <qualitative label>
inactive

$$$$

* * *

Tested on: CCRIS mutagenicity, Ames/micronucleus/aberration tests
Assay: CCRIS mutagenicity studies
Details: Test System: AMES SALMONELLA TYPHIMURIUM; Strain/Indicator: TA98; Metabolic Activation: NONE; Method: PREINCUBATION
Description: The CCRIS database contains chemical records with carcinogenicity, mutagenicity, tumor promotion, and tumor inhibition test results. It was developed by the National Cancer Institute (NCI). Data are derived from studies cited in primary journals, current awareness tools, NCI reports, and other sources. Test results have been reviewed by experts in carcinogenesis and mutagenesis. CCRIS provides historical information from the years 1985 - 2011. It is no longer updated. […]
Active and inactive are the calls of the source. How the calls were made is not given here.
Classes used: label 1 for active, label 0 for inactive

>  <compound>
O[C@@H]1[C@H]2O[C@H]2c2c(ccc3c4ccccc4c4ccccc4c23)[C@H]1O

>  <qualitative label>
label 1

$$$$
>  <compound>
COc1cc(/C=C/C(=O)CC(=O)/C=C/c2ccc(O)c(OC)c2)ccc1O

>  <qualitative label>
label 0

$$$$
>  <compound>
Clc1nncc2cnccc12

>  <qualitative label>
label 0

$$$$
>  <compound>
CCCSC(=O)Cl

>  <qualitative label>
label 0

$$$$
>  <compound>
CN1C(CSCC(F)(F)F)Nc2cc(Cl)c(S(N)(=O)=O)cc2S1(=O)=O (stereo unspecified)

>  <qualitative label>
label 0

$$$$
>  <compound>
CCN(Cc1ccccc1)c1ccccc1

>  <qualitative label>
label 0

$$$$
>  <compound>
NC(=O)c1ccccc1

>  <qualitative label>
label 0

$$$$
>  <compound>
CCCCC(CC)COC(=O)c1ccc(N(C)N=O)cc1 (stereo unspecified)

>  <qualitative label>
label 0

$$$$
>  <compound>
O=C(O)CNC(=O)c1ccc([N+](=O)[O-])cc1

>  <qualitative label>
label 1

$$$$
>  <compound>
O=c1oc2cccc3ccc4cccc1c4c32

>  <qualitative label>
label 0

$$$$
>  <compound>
CCCCOCCOCCSC#N

>  <qualitative label>
label 0

$$$$
>  <compound>
COc1ccc(NC(C)=O)cc1N

>  <qualitative label>
label 0

$$$$
>  <compound>
O=[N+]([O-])c1ccccc1Nc1ccccc1

>  <qualitative label>
label 0

$$$$
>  <compound>
COC(=O)c1ccc(C=O)cc1

>  <qualitative label>
label 0

$$$$
>  <compound>
Cc1cc(-c2ccc(N)c(C)c2)ccc1N

>  <qualitative label>
label 0

$$$$
>  <compound>
CC(C)(C)c1ccc(OCC2CO2)cc1 (stereo unspecified)

>  <qualitative label>
label 0

$$$$
>  <compound>
O=C(O)C(=O)O

>  <qualitative label>
label 0

$$$$
>  <compound>
CC(C)(C)C(=O)C1C(=O)c2ccccc2C1=O

>  <qualitative label>
label 0

$$$$
>  <compound>
CC(C)N=C(NC(C)C)OCc1ccc([N+](=O)[O-])cc1

>  <qualitative label>
label 1

$$$$
>  <compound>
ClC1C=Cc2cc3c4c(ccc5cccc(c54)C=3)c2=C1 (stereo unspecified)

>  <qualitative label>
label 1

$$$$
>  <compound>
Clc1ccc(C(Cl)(Cl)Cl)cc1

>  <qualitative label>
label 0

$$$$
>  <compound>
O=c1[nH]c(=O)[nH]c(=O)[nH]1

>  <qualitative label>
label 0

$$$$
>  <compound>
Cc1ccccc1C#N

>  <qualitative label>
label 0

$$$$
>  <compound>
CC(=O)[O][Hg][c]1ccccc1

>  <qualitative label>
label 0

$$$$
>  <compound>
Cc1cc2nc3ccc(C)c(N)c3nc2cc1N

>  <qualitative label>
label 0

$$$$
>  <compound>
CCN(N=O)C(N)=O

>  <qualitative label>
label 1

$$$$
>  <compound>
COC(=O)C(c1ccccc1)C1CCCCN1 (stereo unspecified)

>  <qualitative label>
label 0

$$$$
>  <compound>
CCCCC(CC)COC(=O)c1ccc(C(=O)OCC(CC)CCCC)c(C(=O)OCC(CC)CCCC)c1 (stereo unspecified)

>  <qualitative label>
label 0

$$$$
>  <compound>
CCOP(=S)(OCC)Oc1cc(C)nc(C(C)C)n1

>  <qualitative label>
label 0

$$$$
>  <compound>
CC(C)NC(C)C

>  <qualitative label>
label 0

$$$$
>  <compound>
CC(CCl)OP(=O)(OC(C)CCl)OC(C)CCl (stereo unspecified)

>  <qualitative label>
label 0

$$$$
>  <compound>
COC(=O)C(=Cc1ccc(Br)o1)[N+](=O)[O-]

>  <qualitative label>
label 0

$$$$
>  <compound>
OCCN1CCNCC1

>  <qualitative label>
label 0

$$$$
>  <compound>
CC(C)OC(=O)C=Cc1ccc([N+](=O)[O-])o1

>  <qualitative label>
label 1

$$$$
>  <compound>
O=[N+]([O-])c1ccccc1O

>  <qualitative label>
label 0

$$$$
>  <compound>
COC(=O)c1ccccc1O

>  <qualitative label>
label 0

$$$$
>  <compound>
Cc1cncc(C)n1

>  <qualitative label>
label 0

$$$$
>  <compound>
Clc1ccc(C(Cl)(Cl)Cl)cc1Cl

>  <qualitative label>
label 0

$$$$
>  <compound>
NNc1nncc2cnccc12

>  <qualitative label>
label 1

$$$$
>  <compound>
O=S(=O)(O)c1ccc(N=Nc2c(O)c(S(=O)(=O)O)cc3cc(S(=O)(=O)O)ccc23)cc1

>  <qualitative label>
label 0

$$$$
>  <compound>
Oc1cc(O)c2ccccc2c1

>  <qualitative label>
label 1

$$$$
>  <compound>
O=[N+]([O-])c1ccc2ccc3c4ccccc4c([N+](=O)[O-])c4ccc1c2c43

>  <qualitative label>
label 1

$$$$
>  <compound>
NCCCNCCCN

>  <qualitative label>
label 0

$$$$
>  <compound>
Cc1c(N)cccc1N

>  <qualitative label>
label 0

$$$$
>  <compound>
CCCCCCCCC1OC1CCCCCCCC(=O)OCC(CC)CCCC (stereo unspecified)

>  <qualitative label>
label 0

$$$$
>  <compound>
Clc1ccc(Cl)c(Cl)c1

>  <qualitative label>
label 0

$$$$
>  <compound>
CN1CCNCC1

>  <qualitative label>
label 0

$$$$
>  <compound>
CN(C)c1ccc(N(C)C)cc1

>  <qualitative label>
label 0

$$$$
>  <compound>
[O]=[Ce]=[O]

>  <qualitative label>
label 0

$$$$
>  <compound>
N=C(N)N

>  <qualitative label>
label 0

$$$$
>  <compound>
O=C(Cl)c1ccc(Cl)cc1Cl

>  <qualitative label>
label 0

$$$$
